Data origin: patent US5153207A

Please go through the items and note down their inhibition in vivo at 1 mg/kg.
- Tested on: passive cutaneous anaphylaxis (PCA) in rats
- ASSAY_REMARKS: 48 hr homologous passive cutaneous anaphylaxis (PCA) in rats
- Type: in vivo, male Wistar rats
- CONDITION_CONTEXT: Rattus norvegicus, po, 1 hr prior to challenge with antigen, read-out: the percent inhibition of PCA in rats
Where a name gives a salt, the structure may show the parent alone.
Numbers only, in %.

Solved entries (count: 3):
Cc1ccc(C(OC2CCN(CCCCCC(=O)O)CC2)c2ccccc2)cc1.Cl (racemic) [Example 64, hydrochloride] | 68
COc1ccc(C(OC2CCN(CCCC(=O)O)CC2)c2ccccc2)cc1.Cl (racemic) [Example 87, hydrochloride] | 54
Cl.O=C(O)CCCN1CCC(OC(c2ccccc2)c2ccc(F)cc2)CC1 (racemic) [Example 115, hydrochloride] | 73

State recorded inhibition in vivo at 1 mg/kg for all listed molecules.
1. Cc1ccc(C(OC2CCN(CCCCCCCC(=O)O)CC2)c2ccccc2)cc1.Cl (racemic) [Example 74, hydrochloride]
2. Cl.O=C(O)CCCCN1CCC(OC(c2ccc(F)cc2)c2ccc(F)cc2)CC1 [Example 120, hydrochloride]
3. Cc1ccc(C(OC2CCN(CCCCCC(=O)O)CC2)c2ccccc2)cc1.Cl (single isomer, unassigned; (+)) [Example 125, hydrochloride]
4. Cl.O=C(O)CCN1CCC(OC(c2ccccc2)c2ccccc2)CC1 [Example 65, hydrochloride]
5. COc1ccc(C(OC2CCN(CCCCCC(=O)O)CC2)c2ccccc2)cc1.Cl (racemic) [Example 89, hydrochloride]
6. Cc1ccc(C(OC2CCN(CCCC(=O)O)CC2)c2ccccc2)cc1.Cl (racemic) [Example 71, hydrochloride]
7. Cc1ccc(C(OC2CCN(CCCCCCC(=O)O)CC2)c2ccccc2)cc1.Cl (racemic) [Example 73, hydrochloride]
8. Cl.O=C(O)CCCN1CCC(OC(c2ccccc2)c2ccccc2Cl)CC1 (racemic) [Example 112, hydrochloride]

59
64
55
62
71
65
67
53

For each entry beneath this line, provide reported inhibition in vivo at 1 mg/kg.
1. COC(=O)CCCCCN1CCC(OC(c2ccccc2)c2ccc(C)cc2)CC1.Cl (single isomer, unassigned; (+)) [Example 62, hydrochloride]
2. CCc1ccc(C(OC2CCN(CCCCCC(=O)O)CC2)c2ccccc2)cc1.Cl (racemic) [Example 77, hydrochloride]
3. CN1CCC(OC(c2ccccc2)c2ccccc2)CC1 [Reference compound A, diphenylpyraline hydrochloride, reference compound]
4. Cc1ccc(C(OC2CCN(CCCCC(=O)O)CC2)c2ccccc2)cc1.Cl (racemic) [Example 72, hydrochloride]
5. CCOC(=O)Oc1ccc(C=CC=CC(=O)NCCN2CCC(OC(c3ccccc3)c3ccccc3)CC2)cc1OC [Reference compound B, reference compound]
6. Cl.O=C(O)CCCCN1CCC(OC(c2ccccc2)c2ccc(F)cc2)CC1 (racemic) [Example 116, hydrochloride]
7. Cc1ccc(C(OC2CCN(CCC(=O)O)CC2)c2ccccc2)cc1.Cl (racemic) [Example 70, hydrochloride]
8. COC(=O)CCCCCN1CCC(OC(c2ccccc2)c2ccc(C)cc2)CC1.Cl (racemic) [Example 1, hydrochloride]

56
68
-1
63
8
83
51
77

Form field - read-out: inhibition in vivo at 1 mg/kg; system: passive cutaneous anaphylaxis (PCA) in rats; submitted item: COc1ccc(C(OC2CCN(CCC(=O)O)CC2)c2ccccc2)cc1.Cl (racemic) [Example 86, hydrochloride]
60
